- TESTED ON: UniProtKB P19793
- Sequence (P19793 whole entry): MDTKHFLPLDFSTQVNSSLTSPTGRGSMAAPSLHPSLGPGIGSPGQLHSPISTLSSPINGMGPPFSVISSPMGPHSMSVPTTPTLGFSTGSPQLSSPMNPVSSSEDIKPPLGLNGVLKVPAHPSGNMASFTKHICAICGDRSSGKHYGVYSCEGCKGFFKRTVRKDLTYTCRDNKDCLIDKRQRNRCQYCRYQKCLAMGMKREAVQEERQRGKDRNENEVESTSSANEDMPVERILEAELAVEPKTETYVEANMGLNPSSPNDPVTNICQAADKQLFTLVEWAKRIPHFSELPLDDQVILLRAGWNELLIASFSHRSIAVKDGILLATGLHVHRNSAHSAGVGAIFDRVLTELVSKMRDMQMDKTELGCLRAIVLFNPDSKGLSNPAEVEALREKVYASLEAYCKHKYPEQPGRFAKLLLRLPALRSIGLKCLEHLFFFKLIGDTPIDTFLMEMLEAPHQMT
- ASSAY EXPLANATION: Inhibition of RXRalpha (unknown origin)
READOUT TYPE: pEC50
Interpret pEC50 as the negative base-10 log of the concentration measured in mol/L.

>>> df
                           smiles_structure         tested_on  readout_type  numeric_readout
0  CCN(c1ccc(C(=O)O)cc1)c1ccc(C(C)C)c(OC(C)C)c1  UniProtKB P19793         pEC50             7.49

Turning now to a further record.
What pEC50 appears in the records for this molecule with UniProtKB P19793? CCN(c1ccc(C(=O)O)cc1)c1ccc(C(C)C)c(OCC(C)C)c1
9.24
